Reference source for all entries: patent US20170107207A1

target_under_test: TIP48/TIP49 complex (Homo sapiens, UniProt Q9Y230+Q9Y265)
Sequence (Q9Y230 whole entry): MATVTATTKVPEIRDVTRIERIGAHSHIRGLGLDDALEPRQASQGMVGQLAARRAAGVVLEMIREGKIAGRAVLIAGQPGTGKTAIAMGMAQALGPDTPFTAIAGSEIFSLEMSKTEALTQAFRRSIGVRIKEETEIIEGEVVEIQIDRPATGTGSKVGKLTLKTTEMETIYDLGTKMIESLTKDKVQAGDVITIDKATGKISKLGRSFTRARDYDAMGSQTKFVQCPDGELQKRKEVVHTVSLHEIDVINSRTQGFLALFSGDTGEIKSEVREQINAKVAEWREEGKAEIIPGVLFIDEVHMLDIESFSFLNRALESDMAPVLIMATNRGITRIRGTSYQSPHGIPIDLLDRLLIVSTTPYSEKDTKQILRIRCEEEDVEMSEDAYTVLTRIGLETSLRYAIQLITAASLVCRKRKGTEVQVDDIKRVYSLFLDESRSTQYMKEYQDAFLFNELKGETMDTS
Sequence (Q9Y265 whole entry): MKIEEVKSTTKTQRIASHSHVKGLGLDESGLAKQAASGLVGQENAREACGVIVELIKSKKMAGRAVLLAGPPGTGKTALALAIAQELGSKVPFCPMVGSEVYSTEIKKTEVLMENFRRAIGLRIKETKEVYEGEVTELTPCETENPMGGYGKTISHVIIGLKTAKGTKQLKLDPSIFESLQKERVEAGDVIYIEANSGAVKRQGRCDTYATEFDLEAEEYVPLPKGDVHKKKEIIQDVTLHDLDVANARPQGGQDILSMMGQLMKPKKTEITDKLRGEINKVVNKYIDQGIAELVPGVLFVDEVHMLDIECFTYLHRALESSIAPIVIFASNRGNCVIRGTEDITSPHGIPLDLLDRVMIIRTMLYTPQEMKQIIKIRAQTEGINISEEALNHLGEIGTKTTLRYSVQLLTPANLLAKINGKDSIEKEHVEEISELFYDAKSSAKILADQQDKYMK
experiment: ATPase assay of TIP48/TIP49 complex (ADP-Glo)
setup_conditions: concentration at which the ATPase activity was inhibited by 50%
pIC50: −log10 of the molar value.
property_name: pIC50

Take a look at these entries with their results.
INSERT INTO results (compound, recorded_result) VALUES
  ('CCc1nc2c(C(=O)NCC(C)(C)CC(=O)Nc3c(C)n(C)n(-c4ccccc4)c3=O)cc(Cl)cc2o1', 7.36),
  ('CCOc1ccc(Cl)cc1NC(=O)CC(C)(CC(=O)Nc1c(C)n(C)n(-c2ccccc2)c1=O)OC(C)=O (stereo not shown)', 6.82),
  ('CCOc1ncc(Cl)cc1C(=O)NCC(C)(C)CC(=O)Nc1c(C)n(C)n(-c2ccccn2)c1=O', 6.96);

1 = CCOc1ccc(Cl)cc1C(=O)NCC(C)(C)CC(=O)Nc1c(CCNC(C)C)n(C)n(-c2ccccc2)c1=O
2 = CCOc1cc(F)c(Cl)cc1C(=O)NCC(C)(C)CC(=O)Nc1c(COC)n(C)n(-c2ccccc2)c1=O
3 = COc1ncc(Cl)cc1C(=O)NCC(C)(C)CC(=O)Nc1c(CN(C)C)n(C)n(-c2ccccc2)c1=O
List from greatest to least pIC50. Would you mind listing the labels in the order asked for?
2, 1, 3
(2: 7.41, 1: 7.19, 3: 6.96)

* * *

System: human lymphoma cell line RAMOS cells
experiment: Cell growth inhibition test using RAMOS cell, MTT assay
Type: cell-based
setup_conditions: 50% growth inhibition concentration
property_name: GI50 (nM)

Take a look at these entries with their results.
INSERT INTO results (molecule, value_units, recorded_result) VALUES
  ('Cc1cc2cc(Cl)cc(C(=O)NCC(C)(C)CC(=O)Nc3c(C)n(C)n(-c4ccccn4)c3=O)c2o1', 'nM', 130),
  ('COc1ccc(Cl)cc1C(=O)NCC(C)(C)CC(=O)Nc1c(COC2CN(C)C2)n(C)n(-c2ccccc2)c1=O', 'nM', 800),
  ('CCOc1ccc(Cl)cc1C(=O)NCC(C)(C)CC(=O)Nc1c(CCCN(C)C)n(C)n(-c2ccccc2)c1=O', 'nM', 100);

I = COc1cc(F)c(Cl)cc1NC(=O)CC(C)(C)CC(=O)Nc1c(CN(C)C)n(C)n(-c2ccccc2)c1=O
II = COc1ccc(Cl)cc1NC(=O)CC(C)(C)CC(=O)Nc1cn(C)n(-c2ccccc2)c1=O
III = COc1ccc(Cl)cc1C(=O)NCC(C)(C)CC(=O)Nc1c(CCNC(=O)OC(C)(C)C)n(C)n(-c2ccccc2)c1=O
IV = CCOc1ccc(Cl)cc1C(=O)NCC(C)(C)CC(=O)Nc1c(CCN(CC)CC)n(C)n(-c2ccccc2)c1=O
Arrange the 4 molecules by rising GI50, starting with the smallest. Would you mind listing the labels in the order asked for?
IV, III, I, II
(IV: 130 nM, III: 190 nM, I: 480 nM, II: 1700 nM)

* * *

Tested on: human lymphoma cell line RAMOS cells
experiment: Cell growth inhibition test using RAMOS cell, MTT assay
Type: cell-based
setup_conditions: 50% growth inhibition concentration
property_name: GI50 (nM)

Take a look at these entries with their results.
INSERT INTO measurements (compound, target_under_test, property_name, value_units, recorded_result) VALUES
  ('CCOc1ccc(Cl)cc1C(=O)NCC(C)(C)CC(=O)Nc1c(CCN(C)C(C)C)n(C)n(-c2ccccc2)c1=O', 'human lymphoma cell line RAMOS cells', 'GI50', 'nM', 150),
  ('CCOc1ccc(Cl)cc1NC(=O)CC(C)(C)CC(=O)Nc1c(CCN(C)C)n(C)n(-c2ccccc2)c1=O', 'human lymphoma cell line RAMOS cells', 'GI50', 'nM', 270),
  ('COc1ccc(Cl)cc1C(=O)NCC(C)(C)CC(=O)Nc1c(CCN)n(C)n(-c2ccccc2)c1=O', 'human lymphoma cell line RAMOS cells', 'GI50', 'nM', 920),
  ('CCOc1ncc(Cl)cc1NC(=O)CC(C)(C)CC(=O)Nc1c(COC)n(C)n(-c2ccccc2)c1=O', 'human lymphoma cell line RAMOS cells', 'GI50', 'nM', 230),
  ('COc1ccc(Cl)cc1NC(=O)CC(C)(C)CC(=O)Nc1c(C)n(C)n(C2CCCCC2)c1=O', 'human lymphoma cell line RAMOS cells', 'GI50', 'nM', 990),
  ('Cc1c(NC(=O)CC(C)(C)CNC(=O)c2cc(Cl)cc3c2OC(C)CN3)c(=O)n(-c2ccccc2)n1C (centres unmarked)', 'human lymphoma cell line RAMOS cells', 'GI50', 'nM', 200);

A = CCOc1ncc(Cl)cc1C(=O)NCC(C)(C)CC(=O)Nc1c(C)n(CCN2CCOCC2)n(-c2ccccc2)c1=O
B = Cc1c(NC(=O)CC(C)(C)CNC(=O)c2cc(Cl)cc3c2OC(C)CN3C)c(=O)n(-c2ccccc2)n1C (centres unmarked)
So which one has the bigger GI50 here, A or B ? Give the label of your selection.
A

a = CCOc1ccc(Cl)cc1C(=O)NCC(C)(C)CC(=O)Nc1c(CCN(C)C)n(C)n(-c2ccccc2)c1=O
b = CCOc1cc(F)c(Cl)cc1NC(=O)CC(C)(C)CC(=O)Nc1c(CCN(C)C)n(C)n(-c2ccccc2)c1=O
So which one has the bigger GI50 here, a or b ? Give the label of your selection.
b
(b: 480 nM, a: 53 nM)

1 = COCc1c(NC(=O)CC(C)(C)CNC(=O)c2cc(Cl)cc3cc(C)oc23)c(=O)n(-c2ccccc2)n1C
2 = Cc1c(NC(=O)CC(C)(C)CNC(=O)c2cc(Cl)ccc2OC(C)C)c(=O)n(-c2ccccc2)n1C
3 = CCOc1ccc(Cl)cc1C(=O)NCC(C)(C)CC(=O)Nc1c(CCNC)n(C)n(-c2ccccc2)c1=O
Arrange the 3 compounds by rising GI50, starting with the smallest. Would you mind listing the labels in the order asked for?
1, 2, 3
(1: 51 nM, 2: 73 nM, 3: 130 nM)

P = CCOc1ccc(Cl)cc1C(=O)NCC(C)(C)CC(=O)Nc1c(COC)n(C)n(-c2ccccc2)c1=O
Q = CCOc1ccc(Cl)cc1C(=O)NCC(C)(C)CC(=O)Nc1c(C)n(C)n(-c2cccc(C)n2)c1=O
Select one. Lower GI50: P or Q Give the label of your selection.
P
(P: 42 nM, Q: 81 nM)

A = Cc1cccc(-n2c(=O)c(NC(=O)CC(C)(C)CNC(=O)c3cc(Cl)cc4cc(C)oc34)c(C)n2C)n1
B = Cc1c(NC(=O)CC(C)(C)CNC(=O)c2cc(Cl)cc3c2OCCC3)c(=O)n(-c2ccccc2)n1C
Select one. Lower GI50: A or B Give the label of your selection.
A
(A: 59 nM, B: 100 nM)

P = CCOc1ccc(Cl)cc1C(=O)NCC(C)(C)CC(=O)Nc1c(CCCCN(C)C)n(C)n(-c2ccccc2)c1=O
Q = CCOc1ncc(Cl)cc1C(=O)NCC(C)(C)CC(=O)Nc1c(COC)n(C)n(-c2ccccc2)c1=O
Select one. Lower GI50: P or Q Give the label of your selection.
P

1 = Cc1c(NC(=O)CC(C)(C)CNC(=O)c2cc(Cl)cc3c2OC(C)C3)c(=O)n(-c2ccccc2)n1C (centres unmarked)
2 = CCOc1ccc(Cl)cc1NC(=O)CC(C)(CC(=O)Nc1c(C)n(C)n(-c2ccccc2)c1=O)OC(C)=O (centres unmarked)
So which one has the bigger GI50 here, 1 or 2 ? Give the label of your selection.
2
(2: 780 nM, 1: 74 nM)

P = Cc1ccc2cc(Cl)cc(C(=O)NCC(C)(C)CC(=O)Nc3c(C)n(C)n(-c4ccccc4)c3=O)c2n1
Q = COc1ccc(Cl)cc1C(=O)NCC(C)(C)CC(=O)Nc1c(C)n(C)n(-c2cccc(C)c2)c1=O
Select one. Lower GI50: P or Q Give the label of your selection.
P
(P: 190 nM, Q: 770 nM)

* * *

target_under_test: TIP48/TIP49 complex (Homo sapiens, UniProt Q9Y230+Q9Y265)
experiment: ATPase assay of TIP48/TIP49 complex (ADP-Glo)
setup_conditions: concentration at which the ATPase activity was inhibited by 50%
property_name: IC50 (nM)

a = COc1ccc(Cl)cc1NC(=O)CC1(CC(=O)Nc2c(C)n(C)n(-c3ccccc3)c2=O)CCC1 [Example 100]
b = COc1ccc(Cl)cc1C(=O)NCC(C)(C)CC(=O)Nc1c(CN(C)C)n(C)n(-c2ccccc2)c1=O [Example 5]
c = Cc1c(NC(=O)CC(C)(C)CNC(=O)c2cc(Cl)cc3c2OC(C)C3)c(=O)n(-c2ccccc2)n1C (stereo not shown) [Example 105]
d = COc1cc(F)c(Cl)cc1NC(=O)CC(C)(C)CC(=O)Nc1c(C)[nH]n(-c2ccccc2)c1=O [Example 144]
Ordering criterion: IC50; begin with the maximum. Would you mind listing the labels in the order asked for?
d, b, a, c
